systemTested: CaAbp1-D1
assayRemarks: SPOT peptide array binding signal intensity (averaged, normalized) (arbitrary units (background-subtracted, floor 0; scale differs between SH3 domains)); higher = stronger binding of the SH3 domain to the peptide
reportedEndpoint: SPOT peptide array binding signal intensity
Quick one: just the number, no unit, thanks!

>  <binder>
RRSKSLPTTPGIRSG

>  <obsValue>
1220

$$$$
>  <binder>
NRLRKRLNLPSEISI

>  <obsValue>
649

$$$$

// switching to the query binder
Requested field: SPOT peptide array binding signal intensity. Item: `LKRITSPPLPPRADS`
134
